Would you kindly list TGI for each of these molecules?
- System: HL-60(TB) leukemia
- assay: NCI tumour cell line growth inhibition, 48 h

[in] Indicate its recorded TGI; the molecule in question is `Cc1cc(Nc2c3ccccc3nc3ccccc23)ccc1NS(C)(=O)=O`
[out] 12.1 µM

[in] Indicate its recorded TGI; the molecule in question is `O=S(=O)(N/N=C/c1cccc(Cl)c1Cl)c1ccccc1`
[out] > 100 µM

[in] Indicate its recorded TGI; the molecule in question is `O=C(O)Cc1ccc(Oc2nc3ccccc3nc2C(=O)O)cc1`
[out] > 100 µM

[in] Indicate its recorded TGI; the molecule in question is `CN1C(=O)[C@@H](NC(=O)[C@H](CCC(F)(F)F)[C@H](CCC(F)(F)F)C(N)=O)N=C(c2ccccc2)c2ccccc21`
[out] > 100 µM

[in] Indicate its recorded TGI; the molecule in question is `CN1CCN(c2cc(C(=O)Nc3cc4cc(-c5cnn(C)c5)ccc4cn3)ccn2)CC1`
[out] 7.91 µM

[in] Indicate its recorded TGI; the molecule in question is `Brc1c(C#CCC(c2ccccc2)(c2ccccc2)c2ccccc2)ccc(C#CCC(c2ccccc2)(c2ccccc2)c2ccccc2)c1Br`
[out] > 100 µM

[in] Indicate its recorded TGI; the molecule in question is COc1ccc(/C=C2\CC(C)CC3C2=NN(C(C)=O)C3c2ccc(OC)cc2)cc1 (stereo not drawn)
[out] 61 µM

[in] Indicate its recorded TGI; the molecule in question is C=C(C)C1CC/C(C)=C/CC[C@]2(C)O[C@H]2CC/C(COC(C)=O)=C\[C@@H]1O (stereo partly drawn)
[out] > 50 µM

* * *

- System: SK-OV-3 ovarian
- assay: NCI tumour cell line growth inhibition, 48 h; in the data active means GI50 below about 0.43 µM; inactive means the rest
Select the correct class. Options are active, inactive and nothing else.

[in] Could you kindly confirm the outcome this assay logged for `O=c1c(O)cccc2cc(O)c(O)c(O)c12` ?
[out] inactive

[in] Could you kindly confirm the outcome this assay logged for `N#CC(C#N)N=Nc1ccc(Br)cc1` ?
[out] inactive

[in] Could you kindly confirm the outcome this assay logged for `CC#C/C(=N\OC[C@H]1COCCN1)c1ccc2ncnc(Nc3ccc(OCc4cccc(F)c4)c(Cl)c3)c2c1` ?
[out] active

[in] Could you kindly confirm the outcome this assay logged for `CC(C)CC(=O)Nc1n[nH]c2c1CN(C(=O)C1CCN(C)CC1)C2(C)C` ?
[out] inactive

[in] Could you kindly confirm the outcome this assay logged for `Cc1cc(Nc2c3ccccc3nc3ccccc23)ccc1NS(C)(=O)=O` ?
[out] inactive

[in] Could you kindly confirm the outcome this assay logged for `N#CSc1c[nH]c2ccc(/C=C/C(=O)/C=C(/C=C/c3ccc4[nH]cc(SC#N)c4c3)OB(F)F)cc12` ?
[out] inactive

[in] Could you kindly confirm the outcome this assay logged for `CN(C)C/C=C/C(=O)Nc1cc2c(Nc3ccc(F)c(Cl)c3F)ncnc2cc1OCCOC(F)F` ?
[out] active

[in] Could you kindly confirm the outcome this assay logged for `O=Cc1ccc(-c2ccc(-c3nc4ccccc4o3)cc2)s1` ?
[out] inactive

[in] Could you kindly confirm the outcome this assay logged for `N=C(N)c1ccc(-c2ccc(-c3ccccc3)s2)cc1` ?
[out] inactive

* * *

- Test system: COLO 205 colon
- assay: NCI tumour cell line growth inhibition, 48 h
experimental.endpoint: TGI

[in] Indicate its recorded TGI; the compound in question is `Cc1[nH]c2ccccc2c1-c1cc(-c2cc(-c3c(C)[nH]c4ccccc34)nc(N)n2)nc(N)n1`
[out] > 100 µM

[in] Indicate its recorded TGI; the compound in question is `CCNc1nnc(-c2nsc3ccccc23)s1`
[out] > 100 µM

[in] Indicate its recorded TGI; the compound in question is `O=C(Cc1nc2ccccc2s1)C(=O)Nc1cccc(Cl)c1`
[out] > 100 µM

[in] Indicate its recorded TGI; the compound in question is `COc1cc(Nc2ncc(F)c(Nc3ccc4c(n3)NC(=O)C(C)(C)O4)n2)cc(OC)c1OC`
[out] > 100 µM

[in] Indicate its recorded TGI; the compound in question is `O=C(c1ccccc1)c1oc2ccc(Br)cc2c1-c1cnn(-c2ccccc2)c1`
[out] > 100 µM

[in] Indicate its recorded TGI; the compound in question is `CN(CCO)c1nc(N)cc(=O)[nH]1`
[out] > 100 µM

[in] Indicate its recorded TGI; the compound in question is `COc1cc(O)c2c(c1)C(=O)C=C(Cl)C2=O`
[out] > 100 µM

[in] Indicate its recorded TGI; the compound in question is CCOc1ccc(NC(=O)/C(=N\NC(C)(C)C)C2C(=O)Nc3ccccc3S2=O)cc1 (stereo not given)
[out] > 100 µM

[in] Indicate its recorded TGI; the compound in question is O=C1O[C@H]2[C@H](O)[C@@H](OC(=O)c3cc(O)c(O)c4c3[C@@H]3C1=CC(=O)C(O)(O)C3(O)O4)[C@H](OC(=O)c1cc(O)c(O)c(O)c1)O[C@@H]2CO (stereo not given in full)
[out] > 100 µM

[in] Indicate its recorded TGI; the compound in question is `COc1cc2c3c(n(CCCNCCCNCCCNCCCN)c(=O)c2cc1OC)-c1cc2c(cc1C3=O)OCO2`
[out] > 100 µM

[in] Indicate its recorded TGI; the compound in question is `COP(=O)(Cc1ccccc1)Cc1ccccc1`
[out] > 100 µM

[in] Indicate its recorded TGI; the compound in question is `CCN(CC)CCNC(=O)c1ccc(I)cc1`
[out] > 100 µM

[in] Indicate its recorded TGI; the compound in question is `N=c1c2c(=S)n(-c3ccccc3)c(=S)n(-c3ccccc3)c2nc(SCCCN2CCN(c3cccc(Cl)c3)CC2)n1-c1ccccc1`
[out] > 100 µM

[in] Indicate its recorded TGI; the compound in question is `CC1=C(C(=O)Nc2cc(=O)n(C)c(=O)n2C)C(c2ccc([N+](=O)[O-])cc2)C(C(=O)Nc2cc(=O)n(C)c(=O)n2C)=C(C)N1`
[out] > 100 µM

[in] Indicate its recorded TGI; the compound in question is `CCN(CC)CCN1C(=O)c2c(c(-c3ccccc3)c3ccccc3c2-c2ccccc2)C1=O`
[out] > 100 µM

* * *

- Test system: SF-539 CNS
- assay: NCI tumour cell line growth inhibition, 48 h; in the data active means GI50 below about 0.43 µM; inactive means the rest
Select the correct class. Options are class 1 = active, class 0 = inactive and nothing else.

[in] Could you kindly confirm the outcome this assay logged for `S=C(Nc1ccc(Cl)cc1)Nc1ccc(-c2nc3ccccc3o2)cc1` ?
[out] class 0

[in] Could you kindly confirm the outcome this assay logged for Nc1ccccc1NC(=O)c1ccc(CCCC(=O)Nc2ccc(C3CC3N)cc2)cc1 (stereo unspecified) ?
[out] class 0

[in] Could you kindly confirm the outcome this assay logged for `NCCN.NCCN.O=C[O-].O=C[O-].[Co+3].[O-][Cl+3]([O-])([O-])[O-]` ?
[out] class 0

[in] Could you kindly confirm the outcome this assay logged for `COC(=O)c1c(O)c([N+](=O)[O-])cc2c1c1c(n2Cc2ccccc2)C(=O)c2ccccc2C1=O` ?
[out] class 0

[in] Could you kindly confirm the outcome this assay logged for `CS(=O)(=O)Nc1cccc(-c2cc(-c3ccccc3Cl)c(C#N)c(N)n2)c1` ?
[out] class 1

[in] Could you kindly confirm the outcome this assay logged for CCN(CC)c1ccc2c(c1)Oc1nc(N)c(C#N)c(N)c1C2Sc1ccc(OC)cc1 (stereo unspecified) ?
[out] class 0

* * *

- Tested on: T-47D breast
- assay: NCI tumour cell line growth inhibition, 48 h
experimental.endpoint: TGI

[in] Enter recorded TGI with T-47D breast for `O=C1NC(N2CCCCC2)=N/C1=C\c1cccs1` here.
[out] > 100 µM

[in] Enter recorded TGI with T-47D breast for `CC1(C)CC(=O)C2=C(C1)NC1=C(C(=O)CC(C)(C)C1)C2c1ccc([N+](=O)[O-])cc1` here.
[out] > 100 µM

[in] Enter recorded TGI with T-47D breast for `CCCCSC1=N/C(=C\c2ccc(N(C)C)cc2)C(NN)=N1` here.
[out] > 100 µM

[in] Enter recorded TGI with T-47D breast for `CCn1cc(-c2ccnc3[nH]ccc23)c(-c2cccc(NC(=O)Nc3ccc(OCc4ccccc4)cc3)c2)n1` here.
[out] > 25 µM

[in] Enter recorded TGI with T-47D breast for CN(C)CC1COC2Cc3ccccc3C1O2 (stereo not given) here.
[out] > 100 µM

[in] Enter recorded TGI with T-47D breast for COc1cc(/C=C2/SC(c3ccccc3)N(c3ccccc3)C2=O)cc(OC)c1OC (stereo not given) here.
[out] > 100 µM

[in] Enter recorded TGI with T-47D breast for Nc1ccccc1NC(=O)c1ccc(CCCC(=O)Nc2ccc(C3CC3N)cc2)cc1 (stereo not given) here.
[out] > 100 µM

[in] Enter recorded TGI with T-47D breast for `COc1cc2c3c(n(CCCNCCCNCCCNCCCN)c(=O)c2cc1OC)-c1cc2c(cc1C3=O)OCO2` here.
[out] > 100 µM

[in] Enter recorded TGI with T-47D breast for `CC(C)(C)OC(=O)N(O)CCCn1cnc2c(N)ncnc21` here.
[out] > 100 µM

[in] Enter recorded TGI with T-47D breast for `Cc1nc([C@H]2CC[C@H]3[C@@H]4CCC5=CC(=O)CC[C@]5(C)[C@H]4CC[C@]23C)cs1` here.
[out] > 100 µM
